MEASURED_ON: T1, recombinant human CD123-Fc (human, UniProt P26951 19-305)
T1 construct: not shown: Fc part of CD123-Fc
T1 sequence: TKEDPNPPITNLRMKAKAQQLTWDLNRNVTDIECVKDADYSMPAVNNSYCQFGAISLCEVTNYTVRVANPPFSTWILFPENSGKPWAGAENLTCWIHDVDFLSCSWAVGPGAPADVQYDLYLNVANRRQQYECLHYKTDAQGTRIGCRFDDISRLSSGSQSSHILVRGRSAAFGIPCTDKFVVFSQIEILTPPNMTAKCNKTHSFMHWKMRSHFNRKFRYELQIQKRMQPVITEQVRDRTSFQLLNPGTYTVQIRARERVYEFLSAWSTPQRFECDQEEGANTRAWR
EXPERIMENTAL_PROTOCOL: phage ELISA, captured CD123-Fc
Excerpt: Individual colonies containing phagemid from BCMA panning output were picked and phage were rescued in 96-well format using VCSM13 helper phage following standard protocols. […] Binding was detected using an HRP-conjugated anti-M13 antibody and the ELISA ratio for each sequence is reported as the absorbance at 450 nm for target (i.e., BCMA-Fc, CD123-Fc, AFP, or AFP123) divided by that for IgG1-Fc averaged across all screened wells containing that clone.
ASSAY_ENDPOINT: ELISA_avg

Request: Entry SEQ ID NO: 454 (designed binder, D domain, on phage) MGSWEFFKYELADIKDELEALGGSEAELAWFEEDIATFEEWLQGYKGKGNPEVEALRKEAAAIRDELQAYRHN : reported ELISA_avg = ?
Response: 3.4 ratio A450 target/IgG1-Fc

Further cases:
Request: Requested read-out: ELISA_avg. Entry: SEQ ID NO: 392 (designed binder, D domain, on phage) MGSWTEFWERLNAIDERLFALGGSEAELAAFEKEIAAFESELQAYKGKGNPEVEWLRLYAAEIRSELQAYRHN
Response: 4 ratio A450 target/IgG1-Fc

Request: Subsequent entry: SEQ ID NO: 519 (designed binder, D domain, on phage) MGSWLYFKEYLADIKSDLEALGGSEAELAWFEYEIADFEEQLQYYKGKGNPEVEALRKEAAAIRDELQAYRHN
Response: 3.7 ratio A450 target/IgG1-Fc

Request: Can you check SEQ ID NO: 376 (designed binder, D domain, on phage) MGSWYEFWGRLDAIEERLWALGGSEAELAAFEKEIAAFESELQAYKGRGNPEVEMLREDAAEIRGQLQAYRHN next?
Response: 5.4 ratio A450 target/IgG1-Fc

Request: Another binder: SEQ ID NO: 504 (designed binder, D domain, on phage) MGSWFMFKEELADIKDWLEALGGSEAELASFESYIAWFEQDLQWYKGKGNPEVEALRKEAAAIRDELQAYRHN
Response: 5.7 ratio A450 target/IgG1-Fc

Request: Input SEQ ID NO: 417 (designed binder, D domain, on phage) MGSWHEFGVRLDAIYDRLMALGGSEAELAAFEKEIAAFESELQAYKGKGNPEVEFLRQAAANIRSELQAYRHN
Response: 15.6 ratio A450 target/IgG1-Fc

Request: For SEQ ID NO: 397 (designed binder, D domain, on phage) MGSWMEFEERLWAIDSRLWALGGSEAELAAFEKEIAAFESELQAYKGKGNPEVEWLRSEAAWIRMELQAYRHN then?
Response: 3.2 ratio A450 target/IgG1-Fc

Request: // repeat for SEQ ID NO: 577 (designed binder, D domain, on phage) MGSWFEFTIRLEAIQDRLDALGGSEAELAWFEWDIAEFEEGLQFYKGKGNPEVEALHTEADAIMNELVAYRHN and report
Response: 3.5 ratio A450 target/IgG1-Fc

Request: Same for SEQ ID NO: 515 (designed binder, D domain, on phage) MGSWGWFKHELAFIKADLEALGGSEAELAWFEEEIAEFEYELQFYKGKGNPEVEALRKEAAAIRDELQAYRHN
Response: 3.3 ratio A450 target/IgG1-Fc

Request: Entry to check: SEQ ID NO: 464 (designed binder, D domain, on phage) MGSWNTFKYELAEIKHFLEALGGSEAELAMFEDDIAMFEWELQEYKGKGNPEVEALRKEAAAIRDELQAYRHN
Response: 5 ratio A450 target/IgG1-Fc
